Target: Prothrombin (Homo sapiens, UniProt P00734)
Assay: Binding affinity against human thrombin
pKi: −log10 of the molar value.
Rule: pKi under 10 gives NO, otherwise YES.

Record excerpt, results attached:
STRUCTURE STRING: N=C(N)c1ccc(CNC(=O)[C@@H]2CCCN2C(=O)[C@H](NCC(=O)O)C(c2ccccc2)c2ccccc2)cc1.O=C(O)C(F)(F)F
ANSWER LABEL: YES

STRUCTURE STRING: CS(=O)(=O)N[C@@H](C(=O)N1CCC[C@H]1C(=O)NCc1ccc(C(=N)NN)cc1)C(c1ccccc1)c1ccccc1
ANSWER LABEL: NO

STRUCTURE STRING: CS(=O)(=O)N[C@@H](C(=O)N1CCC[C@H]1C(=O)NCc1cc(CN)cs1)C(c1ccccc1)c1ccccc1
ANSWER LABEL: NO

STRUCTURE STRING: Cc1cc(CNC(=O)[C@@H]2CCCN2C(=O)[C@H](NS(C)(=O)=O)C(c2ccccc2)c2ccccc2)ccc1CN
ANSWER LABEL: NO

Continue with the next molecule.
query: API: above_or_equal(metric=pKi, cutoff=10) for item CS(=O)(=O)N[C@@H](C(=O)N1CCC[C@H]1C(=O)NCc1ccc(CN)cc1)C(c1ccccc1)c1ccccc1
result: NO

* * *

Reported AUC values are given for each entry in this list.
Experiment: Compound was evaluated for its pharmacokinetic parameter maximum area under curve AUCmax
Format: ADME, organism-based
Set-up: time AUCmax
Details: rat, in vivo
Your answer is read as µg·h/mL, so omit the unit and give the number.

query: Name the recorded AUC for N=C(N)c1ccc(CNC(=O)[C@@H]2CCCN2C(=O)[C@H](N)C(c2ccccc2)c2ccccc2)cc1.O=C(O)C(F)(F)F .
result: 107

query: Follow-up item: CC(=O)N[C@@H](C(=O)N1CCC[C@H]1C(=O)NCc1ccc(C(=N)N)cc1)C(c1ccccc1)c1ccccc1.O=C(O)C(F)(F)F
result: 244

query: Follow-up item: N=C(N)c1ccc(CNC(=O)[C@@H]2CCCN2C(=O)[C@H](NS(=O)(=O)Cc2ccccc2)C(c2ccccc2)c2ccccc2)cc1.O=C(O)C(F)(F)F
result: 68

* * *

Reported Cmax values are given for each entry in this list.
Assay: Compound was evaluated for its pharmacokinetic parameter maximum plasma concentration (Cmax) after oral administration to rats
Type: ADME, organism-based
Parameters: route oral
Conditions: rat
Dear colleague, please send the value followed by its unit.

Known Cmax results, listed for orientation:
STRUCTURE STRING: CC(=O)N[C@@H](C(=O)N1CCC[C@H]1C(=O)NCc1ccc(C(=N)N)cc1)C(c1ccccc1)c1ccccc1.O=C(O)C(F)(F)F
MEASUREMENT TYPE: Cmax
TEST RESULT: 3000 ng/mL
--
STRUCTURE STRING: N=C(N)c1ccc(CNC(=O)[C@@H]2CCCN2C(=O)[C@H](NS(=O)(=O)O)C(c2ccccc2)c2ccccc2)cc1.O=C(O)C(F)(F)F
MEASUREMENT TYPE: Cmax
TEST RESULT: 550 ng/mL
--
STRUCTURE STRING: COC(=O)N[C@@H](C(=O)N1CCC[C@H]1C(=O)NCc1ccc(C(=N)N)cc1)C(c1ccccc1)c1ccccc1.O=C(O)C(F)(F)F
MEASUREMENT TYPE: Cmax
TEST RESULT: 3900 ng/mL

Continue with the next molecule.
query: Name the recorded Cmax for N=C(N)c1ccc(CNC(=O)[C@@H]2CCCN2C(=O)[C@H](NS(N)(=O)=O)C(c2ccccc2)c2ccccc2)cc1.O=C(O)C(F)(F)F .
result: 2800 ng/mL
